# Species on record: Rattus norvegicus
# assay_method_text: DrugMatrix - Regimen: Daily Repeat
# Type: toxicity, organism-based, Sprague-Dawley
# Parameters: regimen Daily Repeat, gender Male, age 6-8 weeks
# experimental_conditions: in vivo, po, 0 mg/kg, 72 h, tissue Blood, route oral GAVAGE, dose level Control, time 3 day, vehicle .5 % CMC
Recorded ERYTHROCYTE COUNT for the following molecules
measurement_kind: ERYTHROCYTE COUNT (x10E6/uL)

* C[C@@H]1CC[C@H]2[C@@H](C)C(=O)O[C@@H]3O[C@@]4(C)CC[C@@H]1[C@]32OO4 [ARTEMISININ] | 5.56
* CCCCC1C(=O)N(c2ccccc2)N(c2ccccc2)C1=O [PHENYLBUTAZONE] | 5.35
* CC(=O)O[C@]1(C(C)=O)CC[C@H]2[C@@H]3C=C(Cl)C4=CC(=O)[C@@H]5C[C@@H]5[C@]4(C)[C@H]3CC[C@@]21C [CYPROTERONE ACETATE] | 5.51
* CCOC(=O)[C@H](CCc1ccccc1)N[C@@H](C)C(=O)N1Cc2ccccc2C[C@H]1C(=O)O | 5.51
